- system: Cholinesterase (Equus caballus) (UniProt P81908)
- Sequence (P81908 whole entry): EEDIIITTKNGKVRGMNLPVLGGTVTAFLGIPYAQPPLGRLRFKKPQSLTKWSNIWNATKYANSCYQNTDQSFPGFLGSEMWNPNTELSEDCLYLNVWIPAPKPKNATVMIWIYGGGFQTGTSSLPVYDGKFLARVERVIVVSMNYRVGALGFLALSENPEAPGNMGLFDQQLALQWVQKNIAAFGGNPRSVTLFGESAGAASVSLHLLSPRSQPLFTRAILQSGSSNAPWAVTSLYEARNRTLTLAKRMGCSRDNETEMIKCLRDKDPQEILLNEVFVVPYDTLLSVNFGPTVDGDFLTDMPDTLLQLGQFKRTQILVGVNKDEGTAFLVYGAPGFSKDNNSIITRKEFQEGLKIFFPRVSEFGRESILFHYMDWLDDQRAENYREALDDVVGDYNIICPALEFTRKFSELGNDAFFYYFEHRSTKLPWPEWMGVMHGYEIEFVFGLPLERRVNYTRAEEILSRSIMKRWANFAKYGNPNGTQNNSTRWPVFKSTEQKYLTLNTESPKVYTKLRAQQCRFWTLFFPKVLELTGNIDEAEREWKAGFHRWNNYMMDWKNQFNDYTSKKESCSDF
- measurementProtocol: Inhibition of horse serum BuChE using butyrylthiocholine iodide as substrate at <10 uM measured for 3 mins by Ellman's method relative to control
- Assay type: cell-free
# cutoff 50% applies to inhibition; >= gives Met, < gives Not met

Is inhibition at least 50%? Consider CCCN(CCCc1ccccc1)Cc1ccc2ccccc2c1
Met

Is inhibition at least 50%? Consider O=C(CN(Cc1ccccc1)Cc1ccco1)Nc1cnc2ccccc2c1
Not met

Is inhibition at least 50%? Consider c1ccc(CCCN(Cc2ccc3ccccc3c2)Cc2ccco2)cc1
Not met

Is inhibition at least 50%? Consider Cc1ccccc1NC(=O)CN(Cc1ccco1)Cc1c[nH]c2ccccc12
Met

Is inhibition at least 50%? Consider Cc1ccccc1NC(=O)CN(Cc1ccc2ccccc2c1)CC(C)(C)C
Met

Is inhibition at least 50%? Consider O=C(CN(Cc1ccco1)Cc1c[nH]c2ccccc12)Nc1ccccc1
Met

Is inhibition at least 50%? Consider Cc1cccc(NC(=O)CN(Cc2ccc3ccccc3c2)Cc2ccco2)c1
Met

Is inhibition at least 50%? Consider O=C(CN(Cc1ccccc1)Cc1ccco1)Nc1ccc2c(c1)OCO2
Met

Is inhibition at least 50%? Consider Cc1cccc(NC(=O)CN(Cc2ccco2)Cc2c[nH]c3ccccc23)c1C
Met

Is inhibition at least 50%? Consider O=C(CN(Cc1ccccc1)Cc1ccco1)Nc1cccc2ccccc12
Met

Is inhibition at least 50%? Consider O=C(CN(Cc1ccccc1)Cc1ccco1)Nc1ccc(F)cc1
Not met

Is inhibition at least 50%? Consider CCCCN(CC(=O)Nc1ccccc1C)Cc1ccc2ccccc2c1
Met

Is inhibition at least 50%? Consider O=C(CN(Cc1ccccc1)Cc1ccco1)Nc1ccccc1
Not met

Is inhibition at least 50%? Consider CCCN(CC(=O)Nc1ccccc1C)Cc1ccc2ccccc2c1
Met

Is inhibition at least 50%? Consider COc1ccc(NC(=O)CN(Cc2ccccc2)Cc2ccco2)cc1
Not met

Is inhibition at least 50%? Consider O=C(CN(Cc1ccco1)Cc1cccc2ccccc12)Nc1ccccc1
Not met

Is inhibition at least 50%? Consider O=C(CN(Cc1ccccc1)Cc1ccco1)Nc1cccc(Cl)c1
Not met

Is inhibition at least 50%? Consider O=C(CN(Cc1ccc2ccccc2c1)Cc1ccco1)Nc1ccccc1
Met

Is inhibition at least 50%? Consider Cc1cccc(NC(=O)CN(Cc2ccccc2)Cc2ccco2)c1C
Met

Is inhibition at least 50%? Consider COc1ccccc1NC(=O)CN(Cc1ccccc1)Cc1ccco1
Not met

Is inhibition at least 50%? Consider O=C(CN(Cc1ccco1)Cc1ccccc1[N+](=O)[O-])Nc1ccccc1
Met

Is inhibition at least 50%? Consider Cc1ccccc1NC(=O)CN(Cc1ccccc1)Cc1ccco1
Met

Is inhibition at least 50%? Consider O=C(CN(Cc1ccccc1)Cc1ccco1)Nc1cccc(Br)c1
Met

Is inhibition at least 50%? Consider Cc1cccc(NC(=O)CN(Cc2ccccc2)Cc2ccco2)c1
Met

Is inhibition at least 50%? Consider Cc1cccc(NC(=O)CN(Cc2ccc3ccccc3c2)Cc2ccco2)c1C
Not met

Is inhibition at least 50%? Consider Cc1ccccc1NC(=O)CN(Cc1ccc2ccccc2c1)C1CCCCC1
Met

Is inhibition at least 50%? Consider Cc1ccccc1NC(=O)CN(Cc1ccc2ccccc2c1)Cc1ccco1
Met

Is inhibition at least 50%? Consider CC(C)CN(CCCc1ccccc1)Cc1ccc2ccccc2c1
Met

Is inhibition at least 50%? Consider O=C(CN(Cc1ccccc1)Cc1ccco1)Nc1cccc(F)c1
Not met

Is inhibition at least 50%? Consider Cc1ccccc1NC(=O)CN(Cc1ccc2ccccc2c1)CC(C)C
Met

Is inhibition at least 50%? Consider N#Cc1ccc(NC(=O)CN(Cc2ccccc2)Cc2ccco2)cc1
Not met

Is inhibition at least 50%? Consider Cc1cccc(NC(=O)CN(Cc2ccco2)Cc2c[nH]c3ccccc23)c1
Met

Is inhibition at least 50%? Consider CCN(CC)CCN(CC(=O)Nc1ccccc1C)Cc1ccc2ccccc2c1
Met

Is inhibition at least 50%? Consider CCCCN(CCCc1ccccc1)Cc1ccc2ccccc2c1
Met

Is inhibition at least 50%? Consider COc1cc(NC(=O)CN(Cc2ccccc2)Cc2ccco2)cc(OC)c1OC
Not met

Is inhibition at least 50%? Consider N#Cc1ccccc1NC(=O)CN(Cc1ccccc1)Cc1ccco1
Not met

Is inhibition at least 50%? Consider O=C(CN(Cc1ccco1)Cc1ccco1)Nc1ccccc1
Not met

Is inhibition at least 50%? Consider Cc1ccc(NC(=O)CN(Cc2ccccc2)Cc2ccco2)cc1
Not met

Reference source: ChEMBL document CHEMBL5352417
